The reader will find reported pIC50 values listed item by item below.
- TARGET_OR_SYSTEM: Cytochrome P450 3A4 (Homo sapiens)
- Sequence (P08684 whole entry): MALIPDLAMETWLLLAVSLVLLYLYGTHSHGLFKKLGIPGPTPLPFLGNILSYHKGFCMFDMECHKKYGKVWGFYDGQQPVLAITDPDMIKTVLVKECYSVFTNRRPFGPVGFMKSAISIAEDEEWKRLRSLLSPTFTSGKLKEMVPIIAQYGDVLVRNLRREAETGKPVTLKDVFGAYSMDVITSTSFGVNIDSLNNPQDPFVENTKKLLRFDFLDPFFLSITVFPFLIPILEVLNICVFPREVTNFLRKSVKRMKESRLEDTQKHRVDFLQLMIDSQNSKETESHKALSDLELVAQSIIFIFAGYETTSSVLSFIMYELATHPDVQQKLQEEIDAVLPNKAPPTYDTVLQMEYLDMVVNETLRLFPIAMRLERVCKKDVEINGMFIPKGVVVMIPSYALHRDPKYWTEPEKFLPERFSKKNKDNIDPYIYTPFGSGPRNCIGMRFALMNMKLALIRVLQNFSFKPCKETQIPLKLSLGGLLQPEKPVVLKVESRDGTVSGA
- TEST_DESCRIPTION: Inhibition of CYP3A4 (unknown origin) using testosterone as substrate in presence of NADPH
- Type: ADME
pIC50: −log10 of the molar value.
MEASURED_PROPERTY: pIC50

>>> test_result("C=CCOc1nccc(C(F)(F)F)c1C(=O)N1CCC[C@@](Oc2csc(C(F)(F)F)c2)(C(=O)N2CCN(c3ccccc3OCCO)CC2)[C@H]1CCC")
4.30
>>> test_result("CCC[C@H]1N(C(=O)c2c(C(F)(F)F)ccnc2OCC(=O)O)CCC[C@@]1(Oc1csc(C(F)(F)F)c1)C(=O)N1CCN(c2ccccc2OCCO)CC1")
4.70
>>> test_result("CCC[C@H]1N(C(=O)c2cnccc2C)CCC[C@@]1(Oc1csc(C(F)(F)F)c1)C(=O)N1CCN(c2ccccc2OCCO)CC1")
5.16
>>> test_result("CCC[C@H]1N(C(=O)c2cnccc2C(F)(F)F)CCC[C@@]1(Oc1csc(C(F)(F)F)c1)C(=O)N1CCN(c2ccccc2OCCO)CC1")
5.18
>>> test_result("CCC[C@H]1N(C(=O)c2c(C(F)(F)F)ccnc2OCCN(C)C)CCC[C@@]1(Oc1csc(C(F)(F)F)c1)C(=O)N1CCN(c2ccccc2OCCO)CC1")
4.70
>>> test_result("CCC[C@H]1N(C(=O)c2c(C(F)(F)F)ccc[n+]2[O-])CCC[C@@]1(Oc1csc(C(F)(F)F)c1)C(=O)N1CCN(c2ccccc2OCCO)CC1")
4.30
>>> test_result("CCC[C@H]1N(C(=O)c2c(F)cccc2C(F)(F)F)CCC[C@@]1(Oc1csc(C(F)(F)F)c1)C(=O)N1CCN(c2ccccc2OCCO)CC1")
4.30
>>> test_result("CCC[C@H]1N(C(=O)c2c(C(F)(F)F)ccnc2OCCO)CCC[C@@]1(Oc1csc(C(F)(F)F)c1)C(=O)N1CCN(c2ccccc2OCCO)CC1")
4.30
>>> test_result("CCC[C@H]1N(C(=O)c2c(C(F)(F)F)ccnc2O)CCC[C@@]1(Oc1csc(C(F)(F)F)c1)C(=O)N1CCN(c2ccccc2OC)CC1")
4.70
>>> test_result("CCC[C@H]1N(C(=O)c2cc(F)ccc2C(F)(F)F)CCC[C@@]1(Oc1csc(C(F)(F)F)c1)C(=O)N1CCN(c2ccccc2OCCO)CC1")
4.30
>>> test_result("CCC[C@H]1N(C(=O)c2ncccc2C(F)(F)F)CCC[C@@]1(Oc1csc(C(F)(F)F)c1)C(=O)N1CCN(c2ccccc2OCCO)CC1")
4.45
>>> test_result("CCC[C@H]1N(C(=O)c2cnccc2C(F)(F)F)CCC[C@@]1(Oc1csc(C(F)(F)F)c1)C(=O)N1CCN(c2ccccc2OCCCC(=O)O)CC1")
4.70
>>> test_result("CCC[C@H]1N(C(=O)c2c(C(F)(F)F)ccnc2O)CCC[C@@]1(Oc1csc(C(F)(F)F)c1)C(=O)N1CCN(c2ccccc2OCCO)CC1")
4.52
>>> test_result("CCC[C@H]1N(C(=O)c2c(C(F)(F)F)ccnc2O)CCC[C@@]1(Oc1csc(C(F)(F)F)c1)C(=O)N1CCN(c2ccccc2OCCCC(=O)O)CC1")
4.30
>>> test_result("CCC[C@H]1N(C(=O)c2cnccc2C(F)(F)F)CCC[C@@]1(Oc1csc(C(F)(F)F)c1)C(=O)N1CCN(c2ccccc2OC)CC1")
5.00
